Values compiled from ChEMBL document CHEMBL4689842.

- Tested on: U2OS
- test-method-notes: Multiplex assay against U2OS
- Type: toxicity, cell-based
- measurement-conditions: human, 12 h, 1 µM, compound concentration 1 uM, replicate 1
parameter-measured: Population Mitochondria Different-Phenotype (%)
One number for each entry, in %.

Provide Population Mitochondria Different-Phenotype (%) for all items below, preserving their order.
1. O=C(Nc1cccnn1)N1CCC(=Cc2cccc(Oc3ccc(C(F)(F)F)cn3)c2)CC1
2. COc1cc(N2CCN(C)CC2)ccc1Nc1ncc2c(n1)N(C)c1ccccc1C(=O)N2C
3. O=C(Nc1ccc(Cl)cc1)Nc1cccc(-c2cccc(N3CCCC3)n2)c1
4. S=C(NCCCc1c[nH]cn1)NCCCN(Cc1ccc(Cl)c(Cl)c1)c1ccc(Br)cn1

1: 5; 2: 25; 3: 7; 4: 31
